Test: Probe fluorescence ratio response to linolenic acid relative to ADIFAB2
Type: binding
Conditions: response relative to ADIFAB2
Description: In an alternate preferred embodiment, the protein is rI-FABP that has Ala substituted for Leu at position 72 (rI-FABP-L72A) with the resulting probe named ADIFAB2. […] ADIFAB2 also has an altered spectral response, making it especially useful for measurements of FFAu in blood samples (Apple et al, Clinical Proteomics, (2004) 1:41-44, U.S. patent application Ser. No. 10/670,958). […] The baseline value for this ratio, measured in the absence of analyte, is designated R0. […]
Please use yes (1) for DR/DR LNA under 1 and no (0) for everything else, ties included.

Challenge: In the record for 38Y 18L 73V 72A (protein, listed as Rattus norvegicus, PEPTIDE (1)...(131) wild-type rat intestinal fatty acid binding protein) AFDGTWKVDRNENYEKFLEKMGINVVKRKLGAHDNLKYTITQEGNKFTVKESSNFRNIDVVFELGVDFAYSAVDGTELTGTWTMEGNKLVGKFKRVDNGKELIAVREISGNELIQTYTYEGVEAKRIFKKE , is DR/DR LNA less than 1?
Response given: yes (1)

Challenge: In the record for 49I1, 72A (protein, listed as Rattus norvegicus, PEPTIDE (1)...(131) wild-type rat intestinal fatty acid binding protein) AFDGTWKVDRNENYEKFMEKMGINVVKRKLGAHDNLKLTITQEGNKFTIKESSNFRNIDVVFELGVDFAYSAADGTELTGTWTMEGNKLVGKFKRVDNGKELIAVREISGNELIQTYTYEGVEAKRIFKKE , is DR/DR LNA less than 1?
Response given: no (0)

Challenge: In the record for 23P1, 72A (protein, listed as Rattus norvegicus, PEPTIDE (1)...(131) wild-type rat intestinal fatty acid binding protein) AFDGTWKVDRNENYEKFMEKMGPNVVKRKLGAHDNLKLTITQEGNKFTVKESSNFRNIDVVFELGVDFAYSAADGTELTGTWTMEGNKLVGKFKRVDNGKELIAVREISGNELIQTYTYEGVEAKRIFKKE , is DR/DR LNA less than 1?
Response given: no (0)

Challenge: In the record for 38I 74F 72A (protein, listed as Rattus norvegicus, PEPTIDE (1)...(131) wild-type rat intestinal fatty acid binding protein) AFDGTWKVDRNENYEKFMEKMGINVVKRKLGAHDNLKITITQEGNKFTVKESSNFRNIDVVFELGVDFAYSAAFGTELTGTWTMEGNKLVGKFKRVDNGKELIAVREISGNELIQTYTYEGVEAKRIFKKE , is DR/DR LNA less than 1?
Response given: no (0)

Challenge: In the record for 104F1, 72A (protein, listed as Rattus norvegicus, PEPTIDE (1)...(131) wild-type rat intestinal fatty acid binding protein) AFDGTWKVDRNENYEKFMEKMGINVVKRKLGAHDNLKLTITQEGNKFTVKESSNFRNIDVVFELGVDFAYSAADGTELTGTWTMEGNKLVGKFKRVDNGKELIFVREISGNELIQTYTYEGVEAKRIFKKE , is DR/DR LNA less than 1?
Response given: yes (1)

Challenge: In the record for 93M, 72A (protein, listed as Rattus norvegicus, PEPTIDE (1)...(131) wild-type rat intestinal fatty acid binding protein) AFDGTWKVDRNENYEKFMEKMGINVVKRKLGAHDNLKLTITQEGNKFTVKESSNFRNIDVVFELGVDFAYSAADGTELTGTWTMEGNKLVGKMKRVDNGKELIAVREISGNELIQTYTYEGVEAKRIFKKE , is DR/DR LNA less than 1?
Response given: no (0)
